- TESTED ON: hMPV A1 F trimer (heated) (human metapneumovirus)
- PROTOCOL SUMMARY: ELISA on coated recombinant protein, OD 405 nm

{"BINDER": "MPV454 (antibody, V domains shown) VH: EVQLVESGGGLVKPGGSLRLSCSTSGFVFSSYAMHWVRQAPGKGLEHVSAISSTGDNTHYADSVKGRFTISRDNSRGRLYLQMTSVRPEDAALYYCVKDLYSGRFYYFLDDWGQGTRIIVSS VL: DIQVTQSPSSLSASVGDRVTISCRASQNISNYLNWFQQRPGKAPKLLIYVASTLQSGAPSRFSGSGSGTDFTLTITDLQPEDFATYYCQQSYNTPPITFGQGTRLEIK", "EC50 / µg/mL": 0.14}
{"BINDER": "MPV477 (antibody, V domains shown) VH: EVQLVQSGAEVKKPGASVEVSCKTSGYTFTDYYLHWVRQAPGQGLEWMGWINPRSGGTKYGQKFQGRVTMTRDTSISTAYMDLRGLRSDDTAVYYCARAPLLTVYAVAHRSGENRFDPWGQGTVTVSS VL: QPPSLSGAPGQTVTISCTGSGSNIGAGYDVNWYQCLPGTAPKLLMFDNSNRPSGVPDRFSGSRSGASASLAITGLQAEDEADYYCQSYDSGLSGWVFGGGTKLTVL", "EC50 / µg/mL": 0.087}
{"BINDER": "MPV467 (antibody, V domains shown) VH: EVQLVESGGGVVRPGTSLRVSCAAFDFNFRDYGMHWVRQAPGKGLEWVAGIWYDGSNKDYADSVKGRFTISRDNSQNTLYLQMNSLRVEDTAVYYCARDPRTHREGALSHFDSWGQGTLVTVSS VL: PNELTQDPAVSVALGQTVRITCQGDSLRNYFAGWYQQKPGQAPLLVLYGENIRPSGIPDRFSGSSSGNTVSLTITGAQAEDEADYYCNSRDNSGNHWVFGGGTRLTVL", "EC50 / µg/mL": 0.26}
